Experiment: Pharmacokinetic study in rats (IV and PO)
Type: in vivo
Conditions: male, Sprague-Dawley, rat, plasma, oral, 5 mg/kg; read-out: oral bioavailability (% F)
outcome_measure: bioavailability (%)
Numbers only, in %.

*Q* Report bioavailability for COc1c(N2C[C@@H](C)C[C@H](N)C2)ccc2c(=O)c(C(=O)O)cn(C3CC3)c12 [Compound 1′, reference compound] please.
*A* 13.2

====

Test: Pharmacokinetic study in rats (IV and PO)
Type: in vivo
Details: male, Sprague-Dawley, plasma; rat, IV injection, 2.5 mg/kg; read-out: terminal half-life (t1/2) (converted)
outcome_measure: half-life

*Q* Could you tell me which half-life is on file for COc1c(N2C[C@H](C)C[C@H](N)C2)ccc2c(=O)c(C(=O)O)cn(C3CC3)c12 ?
*A* 2.47 h
